Provide the recorded z-score for the entries that follow.
- test_name: calcein-AM signal in unstimulated myeloma cells – cell-based, calcein-AM fluorescence, 48 h, PK04 Diversity Set, profiling panel (AID 1166);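 further: cells grown under basal conditions without added stimulus; test concentration not given here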
- protocol_conditions: RPMI8226 myeloma viability, higher = more signal
API note: the answer field is a bare number with no unit suffix.

Could you share which z-score value was measured for CC(=O)n1cc(C(O)C2C=CC3C(=O)NC(=O)C3N2Nc2ccccn2)c2ccccc21 (stereo not drawn) ?
0.102

What z-score value was documented for this compound, `Cc1ccc(S(=O)(=O)N2C[C@@H](C(=O)O)[C@H](Sc3ccccc3)C[C@H]2c2ccccc2)cc1` ?
-0.45

Which z-score value belongs to CCC(CC)C(O)C1C=CC2C(=O)N(c3ccccc3)C(=O)C2N1Nc1ccccc1 (stereo not drawn) ?
-0.092

###

- test_name: small molecules captured by biotinylated probe aFGF10 – biochemical, small-molecule microarray, fluorescence 635/667, stem cell growth factor project, primary screen (AID 1071);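 further: score merges 667 nm spot intensity and signal to noise from triplicate slides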
- protocol_conditions: higher = more signal
Output: class label from composite z-score. Mapping: lower range = under 0.2, middle range = from 0.2 up to 0.6, upper range = 0.6 and over

Looking at O=C(O)C1N=C(c2ccc(OCCCO)cc2)N(c2ccccc2)O1 (stereo not drawn) , which class would you pick?
middle range

# classify by composite z-score band: `NCCCCCCNC(=O)[C@H]1C[C@H]2C(=O)N[C@@H](Cc3ccccc3)C(=O)N2[C@H]1c1cccc(OCCO)c1`
middle range

For this compound, which bin applies? `CC(C)CN1C(=O)[C@@]2(c3ccc([N+](=O)[O-])cc3)CC(=O)N(C3CCCCC3)[C@@H]2c2ccc(CO)cc21`
lower range

Lab note: which band did `O=C1O[C@@H](c2ccccc2)[C@@H](c2ccccc2)N2[C@@H](c3ccc(OCCO)cc3)[C@]3(C(=O)Nc4ccc(C#CC5=CCCCC5)cc43)[C@@H](C(=O)N3CCCCCCC3)[C@H]12` land in?
upper range

Would you mind sorting `CCOC(=O)C1=CC[C@H]2C(=O)N(c3ccccc3)C(=O)[C@@H]12` into the appropriate category?
upper range

For this compound, which bin applies? `COCCOC(=O)N1C(=O)[C@@]2(c3ccccc31)[C@H](C(N)=O)[C@H]1C(=O)O[C@H](c3ccccc3)[C@H](c3ccccc3)N1[C@@H]2c1ccc(O)cc1`
lower range

Class for `C=C(CCCC)C(=O)CC[C@@H](OC(C)=O)c1ccc(CO)o1` ?
upper range

Form: Item = `CCCCC(=C=CC[C@H](O)c1cccc(OCCO)c1)C[C@H](O)c1ccccn1` ; Class = ?
middle range

Class (by measured composite z-score) for `C=CC[C@@]1(C(=O)N2CCCCC2)N=C(c2ccc(OCCCO)cc2)O[C@@H]1c1ccccc1CN=[N+]=[N-]`
middle range

Which bin, given its composite z-score, does `CC(C)(C)OC(=O)CC[C@]1(C(N)=O)N=C(c2ccc(OCCCO)cc2)O[C@H]1c1ccccc1` occupy?
middle range

In plain terms, what class is OCCCC1=CC(C2CC2)N(Cc2cccc(OC(F)(F)F)c2)CC1 (stereo not drawn) ?
lower range

Tag the class for O=C1OCCC=C[C@H]2OC34C=CCN(Cn5nnc6ccccc65)C(=O)[C@H]3N(CCO)C(=O)[C@@H]4C12 (stereo partly drawn)
lower range

State the class of the compound shown: CC(C)CCC[C@@H](C)[C@H]1CC[C@@]2(C)C3=C(CC[C@]12C)[C@@]1(C)CC[C@H](OC(=O)c2ccc(C(F)(F)F)nc2)C(C)(C)C1CC3 (stereo partly drawn)
middle range

Class label required: O=C1C2C=CC(C(O)c3c(F)cccc3Cl)N(Nc3ccccc3F)C2C(=O)N1c1ccccc1 (stereo not drawn)
middle range

Could you tell me which band `COCCOC(=O)N1C(=O)[C@@]2(c3cc(C#Cc4ccc(OC)cc4)ccc31)[C@H](c1ccc(O)cc1)N1[C@H](c3ccccc3)[C@H](c3ccccc3)OC(=O)[C@H]1[C@@H]2C(=O)Nc1nc2ccccc2s1` belongs to?
middle range

Field: class (composite z-score) — entry: `CC(C)OC(=O)C=C1C[C@@H](c2cccc(Cl)c2)O[C@@H](c2cccc(Cl)c2)O1`
upper range

Field: class (composite z-score) — entry: `COc1ccc([Si](C)(C)[C@H]2[C@H](CCn3cc([C@H](O)c4ccccc4)nn3)O[C@@]3(C(=O)N(C)c4ccccc43)[C@@H]2C)cc1`
lower range

###

Assignment: determine reported z-score for the given compounds.
- test_name: budding yeast growth changes without added modifier – OD600, strain BY4716, 24 h, basal condition, primary screen (AID 1173)
- protocol_conditions: S. cerevisiae BY4716 growth, OD600, 24 h; higher = more signal, called active from +8 up or from −8 down
Form rule: numeric answer, no unit written next to it.

Fill in: z-score of `COCCCNC(=O)[C@]1(Cc2ccccc2)N=C(c2ccc(OCCCO)cc2)O[C@@H]1c1ccccc1CN=[N+]=[N-]` is ___
-1.29

Using the record for `C[N+](C)(C)CCCC[C@@H]1NC(=O)[C@H]2C[C@@H](C(=O)NCCCCCCNC(=O)CS)[C@@H](c3ccc(O)cc3)N2C1=O` , report its z-score.
0.123

State the recorded z-score for this entry: `CCOC(=O)C1=C[C@@H](C(C)C)N(S(=O)(=O)c2ccc(C)cc2)[C@H]1c1ccccc1F`
0.81

What value of measured z-score is listed for C=CCC(OC(C)=O)[C@@H]1[C@@H](N(Cc2ccc(-c3cccc(C(F)(F)F)c3)o2)C(=O)c2cccc3ccccc23)c2cc(OCCCO)ccc2N1C(=O)Cc1ccc2ccccc2c1 (some centres not stated) ?
-0.721

Which value of z-score has been reported for `NC(=O)[C@@H]1[C@H]2C(=O)O[C@H](c3ccccc3)[C@H](c3ccccc3)N2[C@H](c2ccc(OCCO)cc2)[C@@]12C(=O)Nc1ccc(C#CC3=CCCCC3)cc12` in the records?
0.193

What value of measured z-score is listed for `C=C(CCCC)/C(=C/C[C@@H](OC(C)=O)c1ccccc1OCCO)c1cc(C(=O)OC)ccc1OC` ?
-0.746

Look up z-score for this compound: `O=C1O[C@H](c2ccccc2)[C@H](c2ccccc2)N2[C@H]1[C@@H](C(=O)NC[C@H](O)c1ccccc1)[C@]1(C(=O)Nc3ccccc31)[C@H]2c1ccc(O)cc1`
0.0934

Which z-score is listed for COc1cc(OC)c(C(O)C2C=CC3C(=O)NC(=O)C3N2Nc2ccccn2)cc1Br (configuration not stated) ?
-0.991

What value of z-score has been recorded for this entry: `COc1ccc(CCNC(=O)[C@@]2(C)c3ccccc3C(=O)N(c3ccc(C)cn3)[C@H]2c2ccc(CO)cc2)cc1`
-0.673

Give its z-score value. Item: [N-]=[N+]=NCc1ccccc1C[C@@]1(C(=O)NCC(O)CO)N=C(c2ccc(OCCCO)cc2)O[C@@H]1c1ccccc1 (some centres not stated)
-2.07

Please give the measured z-score for this compound: `CC(C)[C@@H](C(=O)O)n1cc(C2(O)CCCCC2)nn1`
-1.45

GET /values?readout=z-score&item= `C[N+](C)(C)CCCC[C@@H]1NC(=O)[C@@H]2C[C@H](C(=O)NCCCCCN)[C@H](c3ccc(O)cc3)N2C1=O`
-0.812

Entry `COc1ccc(C(=O)Nc2cccc(CN3C(=O)[C@]4(O[C@H](CCn5cc(CCO)nn5)[C@@H]([Si](C)(C)c5ccc(OC)cc5)[C@@H]4C)c4ccccc43)c2)cc1` : reported z-score = ?
-7.34

Need z-score of CC(C)=CCCC(C)=CC(O)C1C=CC2C(=O)N(c3ccccc3)C(=O)C2N1Nc1ccc(C(C)C)cc1 (configuration not stated) , thanks.
0.125

What measured z-score goes with `COC(=O)[C@@]1(Cc2ccccc2)[C@H]2c3cc(C(=O)N4CCCC4)n(Cc4c(CO)[nH]cc(C)c4=O)c3C[C@H]2CN1C(=O)c1ccccc1` ?
1.01

I am curious: what z-score value has been reported for CS(=O)(=O)CCOC(=O)C1=CC(CCCO)=CC(C2CC2)N(Cc2cc3c(cc2Br)OCO3)C=C1C(=O)OCCS(C)(=O)=O (configuration not stated) ?
-2.22

Bench note: what z-score did `CC(C)NC(=O)[C@@H]1c2ccccc2C(=O)N(C(C)C)[C@H]1c1ccc(CO)cc1` show?
-0.37

For `COCCOC(=O)N1C(=O)[C@@]2(c3cc(C#CCCO)ccc31)[C@H](c1ccc(OCCO)cc1)N1[C@H](c3ccccc3)[C@H](c3ccccc3)OC(=O)[C@H]1[C@@H]2C(N)=O` , what is its reported z-score?
1.67

Can you share its z-score? I mean this compound: O=C1C2C=CC(C(O)c3ccc4c(c3)OCO4)N(Nc3ccc([N+](=O)[O-])cc3)C2C(=O)N1c1ccccc1 (configuration not stated)
-0.13

Fill in the blank: the reported z-score of O=C1C2C=CC(C(O)c3ccc(-c4ccccc4)s3)N(Nc3ccccc3)C2C(=O)N1c1ccccc1 (configuration not stated) is ____.
-2.18

I have this compound here, COc1ccc(C(O)C2C=CC3C(=O)N(C)C(=O)C3N2NC(=O)OC(C)(C)C)c2ccccc12 (configuration not stated) , and I need its recorded z-score.
-1.15

Data request, read-out z-score, for `CO[C@H]1O[C@H](CO)[C@@H](OC(=O)Nc2ccccc2)[C@@H]2OC(=O)[C@@H](Cc3ccc4ccccc4c3)C/C=C/C[C@H](Cc3ccc4ccccc4c3)C(=O)O[C@@H]12`
-0.456
